Biological target: GlcNAc(b1-3)[GlcNAc(b1-6)]Gal(b1-4)GlcNAc
Experiment: glycan array binding signal (z-score within array); higher = stronger binding
Details: glycan notation: IUPAC condensed, linker removed
Many of the other results were omitted from the sample, so the strongest signals are more common in it than they were.
# glycan array binding signal (z-score) annotations
Please reply with the number alone, leaving off any unit.

INSERT INTO assay_data (binder, value_measured) VALUES
  ('DGL (Dioclea grandiflora), P08902 (protein) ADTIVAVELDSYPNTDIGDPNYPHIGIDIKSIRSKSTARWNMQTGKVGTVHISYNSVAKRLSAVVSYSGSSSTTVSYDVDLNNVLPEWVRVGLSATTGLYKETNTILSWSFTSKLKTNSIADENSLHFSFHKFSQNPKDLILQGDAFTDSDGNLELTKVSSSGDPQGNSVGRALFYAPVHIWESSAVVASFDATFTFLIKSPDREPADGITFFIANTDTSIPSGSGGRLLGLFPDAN', -0.183);

Would you kindly look at the next entry?
Input: Could you share which glycan array binding signal (z-score) value was measured for TbCVNHOa (Tuber borchii), Q5MK11 (protein) MSYADSSRNAVLTNGGRTLRAECRNADGNWVTSELDLDTCIGNPNGFLGWGMQNFSHSSEDIKLEEGGRKLTCRPKTVDGGFRERQGIDLNRIQNVNGRLVFQ ?
Output: 0.219

All values here come from the supplement of paper PMC8728848.
